Target: rTas1r2-rTas1r3 V738A (Rattus norvegicus, UniProt Q923K1+Q9Z0R7, V738A)
Construct: expressed in transfected cells; host or cells: HEK293T cells stably expressing Gα16gust44
Sequence (Q9Z0R7 20-843): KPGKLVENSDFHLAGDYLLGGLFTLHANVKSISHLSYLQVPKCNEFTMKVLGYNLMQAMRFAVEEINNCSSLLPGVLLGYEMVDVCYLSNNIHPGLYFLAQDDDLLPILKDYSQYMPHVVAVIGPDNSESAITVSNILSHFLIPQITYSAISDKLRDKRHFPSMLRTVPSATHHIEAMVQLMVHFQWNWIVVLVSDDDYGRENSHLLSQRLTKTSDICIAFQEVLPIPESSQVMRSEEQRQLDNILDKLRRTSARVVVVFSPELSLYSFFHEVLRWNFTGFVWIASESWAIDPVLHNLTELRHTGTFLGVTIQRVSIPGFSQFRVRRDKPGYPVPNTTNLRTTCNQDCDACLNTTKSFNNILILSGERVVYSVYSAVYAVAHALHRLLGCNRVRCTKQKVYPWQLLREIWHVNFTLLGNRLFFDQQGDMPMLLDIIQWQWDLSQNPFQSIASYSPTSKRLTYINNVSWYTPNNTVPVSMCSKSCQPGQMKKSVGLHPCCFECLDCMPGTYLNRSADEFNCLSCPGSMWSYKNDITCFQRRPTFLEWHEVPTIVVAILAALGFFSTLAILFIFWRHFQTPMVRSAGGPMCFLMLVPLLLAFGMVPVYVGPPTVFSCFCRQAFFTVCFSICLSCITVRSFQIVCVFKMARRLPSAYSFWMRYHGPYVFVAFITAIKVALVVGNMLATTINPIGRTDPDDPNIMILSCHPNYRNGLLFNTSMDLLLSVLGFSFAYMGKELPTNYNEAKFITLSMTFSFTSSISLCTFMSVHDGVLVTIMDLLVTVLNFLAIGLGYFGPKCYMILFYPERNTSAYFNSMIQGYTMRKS
Sequence (Q923K1 21-858 V738A): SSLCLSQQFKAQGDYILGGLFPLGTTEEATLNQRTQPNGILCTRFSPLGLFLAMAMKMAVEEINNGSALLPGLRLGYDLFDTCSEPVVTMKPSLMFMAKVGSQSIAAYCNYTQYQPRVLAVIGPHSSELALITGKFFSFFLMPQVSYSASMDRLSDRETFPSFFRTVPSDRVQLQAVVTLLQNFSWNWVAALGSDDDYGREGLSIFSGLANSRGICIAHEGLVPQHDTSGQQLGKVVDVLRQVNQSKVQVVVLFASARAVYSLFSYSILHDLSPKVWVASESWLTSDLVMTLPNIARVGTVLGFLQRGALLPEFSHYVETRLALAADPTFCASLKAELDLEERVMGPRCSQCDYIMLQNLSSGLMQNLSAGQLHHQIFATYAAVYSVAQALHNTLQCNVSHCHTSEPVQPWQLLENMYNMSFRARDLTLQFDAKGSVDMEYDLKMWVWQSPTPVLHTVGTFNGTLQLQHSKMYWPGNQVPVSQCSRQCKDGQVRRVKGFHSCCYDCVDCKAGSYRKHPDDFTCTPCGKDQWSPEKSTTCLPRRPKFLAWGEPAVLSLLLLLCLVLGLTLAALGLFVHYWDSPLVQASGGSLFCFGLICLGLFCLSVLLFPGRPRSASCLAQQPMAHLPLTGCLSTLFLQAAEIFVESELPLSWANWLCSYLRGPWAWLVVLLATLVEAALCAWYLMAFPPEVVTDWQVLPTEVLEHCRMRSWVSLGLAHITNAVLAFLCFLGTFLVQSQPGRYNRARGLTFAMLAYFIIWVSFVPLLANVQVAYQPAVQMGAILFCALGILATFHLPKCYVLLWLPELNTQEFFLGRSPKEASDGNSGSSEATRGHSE
Experiment: Calcium mobilization (FLIPR), rTas1r3-V738A variant
Format: cell-based
Conditions: asp 15 mM; cyc 30 mM; neo 0.1 mM; sac 10 mM; suc 100 mM; stev 1 mM
propertyLabel: activation of receptor (calcium response)

>>> val("COc1ccc(CCC(=O)c2c(O)cc(O[C@@H]3O[C@H](CO)[C@@H](O)[C@H](O)[C@H]3O[C@@H]3O[C@@H](C)[C@H](O)[C@@H](O)[C@H]3O)cc2O)cc1O [neohesperidine dihydrochalcone]")
"not"

Every entry's value here was drawn from paper PMC1084349.
